# assayed.system: T1, cynomolgus monkey C2 (cynomolgus monkey, UniProt G8F3W0 21-752)
# T1 construct: also called cyno C2
# T1 sequence: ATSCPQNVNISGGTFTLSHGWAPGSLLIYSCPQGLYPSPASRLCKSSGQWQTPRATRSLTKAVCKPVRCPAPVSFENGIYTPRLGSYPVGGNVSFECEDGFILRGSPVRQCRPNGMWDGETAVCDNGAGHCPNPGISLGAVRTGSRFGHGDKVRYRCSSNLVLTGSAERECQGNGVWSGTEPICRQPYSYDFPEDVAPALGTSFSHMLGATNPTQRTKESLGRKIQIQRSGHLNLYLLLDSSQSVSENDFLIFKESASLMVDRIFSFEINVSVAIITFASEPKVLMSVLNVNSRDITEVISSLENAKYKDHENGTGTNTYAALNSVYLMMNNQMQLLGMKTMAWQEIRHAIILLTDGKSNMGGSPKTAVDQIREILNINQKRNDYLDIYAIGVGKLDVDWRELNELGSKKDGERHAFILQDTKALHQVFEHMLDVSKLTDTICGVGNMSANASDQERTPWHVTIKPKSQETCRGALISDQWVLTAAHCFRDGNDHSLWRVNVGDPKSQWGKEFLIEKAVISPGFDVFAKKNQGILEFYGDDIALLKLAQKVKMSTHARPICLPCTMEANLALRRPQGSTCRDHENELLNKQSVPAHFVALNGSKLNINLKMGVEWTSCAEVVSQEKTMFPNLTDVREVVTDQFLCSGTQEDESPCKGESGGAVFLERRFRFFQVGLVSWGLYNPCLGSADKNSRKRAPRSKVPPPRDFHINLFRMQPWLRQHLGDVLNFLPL
# protocol.text: SPR, mAb captured, cyno C2 analyte, pH 6.0
measured.metric: Kd (nM)
One number for each entry, in nM.

Example cases with answers are listed next.
>>> assay_result("RF16-214 (antibody, V domains shown) VH: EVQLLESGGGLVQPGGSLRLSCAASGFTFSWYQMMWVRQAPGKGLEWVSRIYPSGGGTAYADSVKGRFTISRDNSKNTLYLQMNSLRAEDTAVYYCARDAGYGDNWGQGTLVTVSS VL: QSALTQPPSVSVSPGQTASITCSGDKLGEKYASWYQQKAGQSPVMVIYQDRKRPSGIPERFSGSNSGNTATLTISGTQAMDEADYYCQAWDTRAVVFGGGTKLTVLG")
137
>>> assay_result("RF16-191G (antibody, V domains shown) VH: EVQLLESGGGLVQPGGSLRLSCAASGFTFSKYWMGWVRQAPGKGLEWVSSIYSSGGWTYYADSVKGRFTISRDNSKNTLYLQMNSLRAEDTAVYYCARRPRSFSGSYYRAFDIWGQGTMVTVSS VL: DIQMTQSPSSLSASVGDRVTITCRASQSITDYLNWYQQKPGKAPKLLIYAASSLQSGVPSRFSGSGSGTDFTLTISSLQPEDFATYYCQQSYSSSITFGQGTRLDLKR")
87.3
>>> assay_result("RF16-214G (antibody, V domains shown) VH: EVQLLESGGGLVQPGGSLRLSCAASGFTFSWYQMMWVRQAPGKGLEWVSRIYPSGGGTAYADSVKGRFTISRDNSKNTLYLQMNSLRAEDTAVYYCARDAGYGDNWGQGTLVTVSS VL: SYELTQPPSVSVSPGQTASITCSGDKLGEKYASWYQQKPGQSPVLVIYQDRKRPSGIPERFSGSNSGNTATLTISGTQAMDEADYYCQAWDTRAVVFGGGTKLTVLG")
111
>>> assay_result("RF16-242 (antibody, V domains shown) VH: EVQLLQSGAEVKKPGESLKISCKGSGYSFTSYWIGWVRQMPGKGLEWMGIIYPGDSDTRYSPSFQGQVTISADKSISTAYLQWSSLKASDTAMYYCARRGHYGDYFDYWGQGTLVTVSS VL: SYELTQPPSVSVSPGQTARITCSGDALPKKYAYWYHQKSGQAPVLVIYEDRRRPSEIPERFSGSSSGTMATLTITGAQVEDEGVYFCYSRDRAGNQRVFGGGTQLTVLG")
134
>>> assay_result("RF16-242G (antibody, V domains shown, Germlined version of RF16-242) VH: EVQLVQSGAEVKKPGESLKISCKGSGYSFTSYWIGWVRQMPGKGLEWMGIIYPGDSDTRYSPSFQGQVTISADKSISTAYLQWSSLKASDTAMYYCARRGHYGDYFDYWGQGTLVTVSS VL: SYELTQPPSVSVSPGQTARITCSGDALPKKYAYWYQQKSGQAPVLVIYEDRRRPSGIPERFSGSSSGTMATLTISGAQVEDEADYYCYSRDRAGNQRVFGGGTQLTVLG")
132

Moving on to another binder below.
Item RF16-191 (antibody, V domains shown, Human antibody from a phage display library) VH: EVQLLESGGGLVQPGGSLRLSCAASGFTFSKYWMGWVRQATGKGLEWVSSIYSSGGWTYYADSVKGRFTISRDNSKNTLYLQMNSLRAEDTAVYYCARRPRSFSGSYYRAFDIWGQGTMVTVSS VL: DIQMTQSPSSLSASVGDRVTITCRASQSITDYLNWYQQRPGKAPKLLIYAASSLQSGVPSRFSGSGSGTDFTLTISGLQPEDFATYYCQQSYSSSITFGQGTRLDLKR has what recorded Kd?
71.3

Provenance of the data: patent US20220332804A1
